protocol description: in vitro
run conditions: mouse, microsomes, pH 7.4
Where a SMILES comes first, the peptide text is derived from it. [ ]: non-standard residue; d: D form. The star is where a group is joined. d(aIle) = CC[C@H](C)[C@@H](N)C(=O)O; X1 = CC[C@H](C)CCCCC(=O)*; dDab = NCC[C@@H](N)C(=O)O; Dab = NCC[C@H](N)C(=O)O
value type: half-life

Request: Data request, read-out half-life, for CC[C@H](C)CCCCC(=O)NCC(=O)N[C@H](CCN)C(=O)NCC(=O)N[C@H](CO)C(=O)N[C@H](Cc1c[nH]c2ccccc12)C(=O)N[C@@H](CO)C(=O)N[C@@H](CCN)C(=O)N[C@H](CCN)C(=O)N[C@H](C(=O)N[C@@H](CCC(=O)O)C(=O)N[C@H](C(=O)N[C@@H](C(=O)N[C@@H](CO)C(=O)O)[C@@H](C)CC)[C@@H](C)CC)[C@@H](C)CC [Tridecaptin M, tridecaptin M] (X1-G[dDab]G[dS][dW]S[Dab][dDab]IEI[d(aIle)]S-OH)
Response: > 2 h

----------
protocol description: in vitro
run conditions: rat, liver microsomes, pH 7.4
value type: half-life

Request: Using the record for O=C(O)Cc1ccccc1Nc1c(Cl)cccc1Cl [Diclofenac, reference compound] , report its half-life.
Response: > 2 h

----------
protocol description: in vitro
run conditions: mouse, liver microsomes, pH 7.4
value type: remaining at 0.5 h (%)
# unit: % | format: bare number

Request: # query: remaining at 0.5 h of entry O=C(O)Cc1ccccc1Nc1c(Cl)cccc1Cl [Diclofenac, reference compound]
Response: 77.7

----------
protocol description: in vitro
run conditions: human, liver microsomes, pH 7.4
value type: remaining at 2 h (%)
# output: bare number, implied unit %

Request: Quick one: remaining at 2 h for O=C(O)Cc1ccccc1Nc1c(Cl)cccc1Cl [Diclofenac, reference compound] ?
Response: 8.3

----------
target: CYP3A4 (Homo sapiens, UniProt P08684)
Sequence (P08684 whole entry, canonical isoform): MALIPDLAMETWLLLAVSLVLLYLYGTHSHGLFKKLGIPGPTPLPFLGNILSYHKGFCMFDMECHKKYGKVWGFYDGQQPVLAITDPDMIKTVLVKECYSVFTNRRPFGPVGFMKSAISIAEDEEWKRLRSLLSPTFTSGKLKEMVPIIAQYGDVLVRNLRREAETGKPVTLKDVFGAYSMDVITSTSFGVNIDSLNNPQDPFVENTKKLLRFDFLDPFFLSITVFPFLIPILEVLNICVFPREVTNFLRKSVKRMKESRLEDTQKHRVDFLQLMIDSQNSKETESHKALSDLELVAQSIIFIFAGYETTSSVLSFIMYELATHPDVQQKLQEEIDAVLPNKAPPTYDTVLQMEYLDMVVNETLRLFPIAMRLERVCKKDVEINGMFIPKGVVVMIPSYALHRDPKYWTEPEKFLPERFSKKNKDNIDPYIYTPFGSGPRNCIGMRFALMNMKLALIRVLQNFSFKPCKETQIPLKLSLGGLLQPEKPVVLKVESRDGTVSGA
protocol description: CYP inhibition assay, recombinant isoform, fluorescence
Assay type: biochemical
run conditions: human
Where a SMILES comes first, the peptide text is derived from it. [ ]: non-standard residue; d: D form. The star is where a group is joined. d(aIle) = CC[C@H](C)[C@@H](N)C(=O)O; X1 = CC[C@H](C)CCCCC(=O)*; dDab = NCC[C@@H](N)C(=O)O; Dab = NCC[C@H](N)C(=O)O
value type: inhibition at 25 min, 30 µM (%)
Reply with just the number (in %).

Request: # query: inhibition at 25 min, 30 µM of entry CC[C@H](C)CCCCC(=O)NCC(=O)N[C@H](CCN)C(=O)NCC(=O)N[C@H](CO)C(=O)N[C@H](Cc1c[nH]c2ccccc12)C(=O)N[C@@H](CO)C(=O)N[C@@H](CCN)C(=O)N[C@H](CCN)C(=O)N[C@H](C(=O)N[C@@H](CCC(=O)O)C(=O)N[C@H](C(=O)N[C@@H](C(=O)N[C@@H](CO)C(=O)O)[C@@H](C)CC)[C@@H](C)CC)[C@@H](C)CC [Tridecaptin M, tridecaptin M] (X1-G[dDab]G[dS][dW]S[Dab][dDab]IEI[d(aIle)]S-OH)
Response: 26.6

----------
target: CYP2C9 (Homo sapiens)
Sequence (P11712 whole entry, canonical isoform): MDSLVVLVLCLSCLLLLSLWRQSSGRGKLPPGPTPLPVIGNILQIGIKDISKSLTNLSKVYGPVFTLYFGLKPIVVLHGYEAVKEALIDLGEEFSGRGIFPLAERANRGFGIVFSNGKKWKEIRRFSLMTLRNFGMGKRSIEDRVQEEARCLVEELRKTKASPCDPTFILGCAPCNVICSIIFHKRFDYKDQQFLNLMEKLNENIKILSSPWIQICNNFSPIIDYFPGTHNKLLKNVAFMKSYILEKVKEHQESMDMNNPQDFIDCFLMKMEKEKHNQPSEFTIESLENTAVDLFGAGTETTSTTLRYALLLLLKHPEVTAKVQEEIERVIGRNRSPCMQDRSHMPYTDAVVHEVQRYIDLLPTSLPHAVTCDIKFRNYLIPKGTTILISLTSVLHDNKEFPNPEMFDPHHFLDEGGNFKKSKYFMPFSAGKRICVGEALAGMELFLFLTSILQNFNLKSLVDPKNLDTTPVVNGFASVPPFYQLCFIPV
protocol description: CYP inhibition assay, recombinant isoform, fluorescence
Assay type: biochemical
run conditions: human; 0.001 µM; read-out: % inhibition CYP 2C9
value type: inhibition at 25 min, 0.001 µM

Request: Fill in: inhibition at 25 min, 0.001 µM of Nc1ccc(S(=O)(=O)Nc2ccnn2-c2ccccc2)cc1 [Sulfaphenazole, reference compound] is ___
Response: < 0%
